For each of the compounds below, state its relative viability.
System: NCI-H1792
METHOD_SUMMARY: relative viability (nuclei count vs DMSO), 5 days (fraction); higher = more cells survive
EXPERIMENTAL_PARAMETERS: first compound 0.2 µM
# output: bare number, no unit

So for CN1CCN(CCOc2cc(OC3CCOCC3)c3c(Nc4c(Cl)ccc5c4OCO5)ncnc3c2)CC1 [Saracatinib] + Cc1nc(NC(=O)N2CCC[C@H]2C(N)=O)sc1-c1ccnc(C(C)(C)C(F)(F)F)c1 [Alpelisib] (partner 2 µM) , the logged relative viability turned out to be 0.492

So for Cc1csc(=NC2CCCCC2)n1/N=C/c1ccc(O)c(O)c1O [MIM1] + CC(=O)Nc1cccc(-n2c(=O)n(C3CC3)c(=O)c3c(Nc4ccc(I)cc4F)n(C)c(=O)c(C)c32)c1 [Trametinib] (partner 0.02 µM) , the logged relative viability turned out to be 0.4

So for Cc1csc(=NC2CCCCC2)n1/N=C/c1ccc(O)c(O)c1O [MIM1] + COc1cccc2cc(-c3nc([C@H]4CC[C@H](C(=O)O)CC4)n4ncnc(N)c34)[nH]c12 [OSI-027] (partner 0.5 µM) , the logged relative viability turned out to be 0.737

So for CCNC(=O)c1noc(-c2cc(C(C)C)c(O)cc2O)c1-c1ccc(CN2CCOCC2)cc1 [Luminespib] + C[C@@H](Oc1cc(-c2cnn(C3CCNCC3)c2)cnc1N)c1c(Cl)ccc(F)c1Cl [Crizotinib] (partner 1 µM) , the logged relative viability turned out to be 0.119

So for Cc1csc(=NC2CCCCC2)n1/N=C/c1ccc(O)c(O)c1O [MIM1] + O=C(c1cc(Cc2n[nH]c(=O)c3ccccc23)ccc1F)N1CCN(C(=O)C2CC2)CC1 [Olaparib] (partner 8 µM) , the logged relative viability turned out to be 0.469

So for CCNC(=O)c1noc(-c2cc(C(C)C)c(O)cc2O)c1-c1ccc(CN2CCOCC2)cc1 [Luminespib] + NC(=O)Nc1cc(-c2cccc(F)c2)sc1C(=O)N[C@H]1CCCNC1 [AZD7762] (partner 0.2 µM) , the logged relative viability turned out to be 0.0361

So for CCNC(=O)c1noc(-c2cc(C(C)C)c(O)cc2O)c1-c1ccc(CN2CCOCC2)cc1 [Luminespib] + Cc1nc(Nc2ncc(C(=O)Nc3c(C)cccc3Cl)s2)cc(N2CCN(CCO)CC2)n1 [Dasatinib] (partner 0.075 µM) , the logged relative viability turned out to be 0.242

So for CCNC(=O)c1noc(-c2cc(C(C)C)c(O)cc2O)c1-c1ccc(CN2CCOCC2)cc1 [Luminespib] + O=C(c1cc(Cc2n[nH]c(=O)c3ccccc23)ccc1F)N1CCN(C(=O)C2CC2)CC1 [Olaparib] (partner 8 µM) , the logged relative viability turned out to be 0.0503

So for Cc1csc(=NC2CCCCC2)n1/N=C/c1ccc(O)c(O)c1O [MIM1] + NC(=O)Nc1cc(-c2cccc(F)c2)sc1C(=O)N[C@H]1CCCNC1 [AZD7762] (partner 0.2 µM) , the logged relative viability turned out to be 0.657

---

Test system: NCI-H727
METHOD_SUMMARY: relative viability (nuclei count vs DMSO), 5 days (fraction); higher = more cells survive
EXPERIMENTAL_PARAMETERS: first compound 0.6325 µM
For each of the molecules below, state its relative viability.
# output: bare number, no unit

Reading of relative viability for Cc1csc(=NC2CCCCC2)n1/N=C/c1ccc(O)c(O)c1O [MIM1] + CCNC(=O)c1noc(-c2cc(C(C)C)c(O)cc2O)c1-c1ccc(CN2CCOCC2)cc1 [Luminespib] (partner 0.01 µM) with NCI-H727: 0.309

Reading of relative viability for CN1CCN(CCOc2cc(OC3CCOCC3)c3c(Nc4c(Cl)ccc5c4OCO5)ncnc3c2)CC1 [Saracatinib] + N=C(N)NC(=N)NCCc1ccccc1 [Phenformin] (partner 250 µM) with NCI-H727: 0.465

Reading of relative viability for CN1CCN(CCOc2cc(OC3CCOCC3)c3c(Nc4c(Cl)ccc5c4OCO5)ncnc3c2)CC1 [Saracatinib] + Cc1nc(NC(=O)N2CCC[C@H]2C(N)=O)sc1-c1ccnc(C(C)(C)C(F)(F)F)c1 [Alpelisib] (partner 2 µM) with NCI-H727: 0.334

Reading of relative viability for Cc1csc(=NC2CCCCC2)n1/N=C/c1ccc(O)c(O)c1O [MIM1] + CC1(C)CCC(c2ccc(Cl)cc2)=C(CN2CCN(c3ccc(C(=O)NS(=O)(=O)c4ccc(N[C@H](CCN5CCOCC5)CSc5ccccc5)c(S(=O)(=O)C(F)(F)F)c4)cc3)CC2)C1 [Navitoclax] (partner 0.5 µM) with NCI-H727: 0.493

---

Tested on: NCI-H2347
METHOD_SUMMARY: relative viability (nuclei count vs DMSO), 5 days (fraction); higher = more cells survive
EXPERIMENTAL_PARAMETERS: first compound 0.6325 µM
Response field label takes rule met when relative viability is strictly below 0.6 and rule not met in all other cases.

Would you kindly verify if relative viability of Cc1csc(=NC2CCCCC2)n1/N=C/c1ccc(O)c(O)c1O [MIM1] + O=C(c1cc(Cc2n[nH]c(=O)c3ccccc23)ccc1F)N1CCN(C(=O)C2CC2)CC1 [Olaparib] (partner 8 µM) is strictly less than 0.6?
rule met

Would you kindly verify if relative viability of CN1CCN(CCOc2cc(OC3CCOCC3)c3c(Nc4c(Cl)ccc5c4OCO5)ncnc3c2)CC1 [Saracatinib] + CS(=O)(=O)N1CCN(Cc2cc3nc(-c4cccc5[nH]ncc45)nc(N4CCOCC4)c3s2)CC1 [Pictilisib] (partner 1 µM) is strictly less than 0.6?
rule not met

Would you kindly verify if relative viability of CN1CCN(CCOc2cc(OC3CCOCC3)c3c(Nc4c(Cl)ccc5c4OCO5)ncnc3c2)CC1 [Saracatinib] + CC(=O)Nc1cccc(-n2c(=O)n(C3CC3)c(=O)c3c(Nc4ccc(I)cc4F)n(C)c(=O)c(C)c32)c1 [Trametinib] (partner 0.02 µM) is strictly less than 0.6?
rule met

Would you kindly verify if relative viability of Cc1csc(=NC2CCCCC2)n1/N=C/c1ccc(O)c(O)c1O [MIM1] + N=C(N)NC(=N)NCCc1ccccc1 [Phenformin] (partner 250 µM) is strictly less than 0.6?
rule met

Would you kindly verify if relative viability of CN1CCN(CCOc2cc(OC3CCOCC3)c3c(Nc4c(Cl)ccc5c4OCO5)ncnc3c2)CC1 [Saracatinib] + Cc1cc(Nc2cc(N3CCN(C)CC3)nc(Sc3ccc(NC(=O)C4CC4)cc3)n2)n[nH]1 [Tozasertib] (partner 0.1 µM) is strictly less than 0.6?
rule met

---

System: LCLC-97TM1
METHOD_SUMMARY: relative viability (nuclei count vs DMSO), 5 days (fraction); higher = more cells survive
EXPERIMENTAL_PARAMETERS: first compound 0.002 µM
Response field label takes 1 when relative viability is strictly below 0.3 and -1 in all other cases.

Would you kindly verify if relative viability of CCNC(=O)c1noc(-c2cc(C(C)C)c(O)cc2O)c1-c1ccc(CN2CCOCC2)cc1 [Luminespib] + CC(C)C[C@H](NC(=O)[C@H](Cc1ccccc1)NC(=O)c1cnccn1)B(O)O [Bortezomib] (partner 0.002 µM) is strictly less than 0.3?
-1

Would you kindly verify if relative viability of CCNC(=O)c1noc(-c2cc(C(C)C)c(O)cc2O)c1-c1ccc(CN2CCOCC2)cc1 [Luminespib] + Cc1nc(NC(=O)N2CCC[C@H]2C(N)=O)sc1-c1ccnc(C(C)(C)C(F)(F)F)c1 [Alpelisib] (partner 2 µM) is strictly less than 0.3?
1

Would you kindly verify if relative viability of CCNC(=O)c1noc(-c2cc(C(C)C)c(O)cc2O)c1-c1ccc(CN2CCOCC2)cc1 [Luminespib] + CC(=O)Nc1cccc(-n2c(=O)n(C3CC3)c(=O)c3c(Nc4ccc(I)cc4F)n(C)c(=O)c(C)c32)c1 [Trametinib] (partner 0.02 µM) is strictly less than 0.3?
1

Would you kindly verify if relative viability of CCNC(=O)c1noc(-c2cc(C(C)C)c(O)cc2O)c1-c1ccc(CN2CCOCC2)cc1 [Luminespib] + Cc1cc(Nc2cc(N3CCN(C)CC3)nc(Sc3ccc(NC(=O)C4CC4)cc3)n2)n[nH]1 [Tozasertib] (partner 0.1 µM) is strictly less than 0.3?
1

Would you kindly verify if relative viability of CCNC(=O)c1noc(-c2cc(C(C)C)c(O)cc2O)c1-c1ccc(CN2CCOCC2)cc1 [Luminespib] + C[C@]1(O)C[C@@H](c2nc(-c3ccc4ccc(-c5ccccc5)nc4c3)c3c(N)nccn32)C1 [Linsitinib] (partner 1 µM) is strictly less than 0.3?
1

Would you kindly verify if relative viability of CCNC(=O)c1noc(-c2cc(C(C)C)c(O)cc2O)c1-c1ccc(CN2CCOCC2)cc1 [Luminespib] + Nc1nc2[nH]cc(CCc3ccc(C(=O)N[C@@H](CCC(=O)O)C(=O)O)cc3)c2c(=O)[nH]1 [Pemetrexed] (partner 0.2 µM) is strictly less than 0.3?
1

Would you kindly verify if relative viability of CCNC(=O)c1noc(-c2cc(C(C)C)c(O)cc2O)c1-c1ccc(CN2CCOCC2)cc1 [Luminespib] + C[C@@H](Oc1cc(-c2cnn(C3CCNCC3)c2)cnc1N)c1c(Cl)ccc(F)c1Cl [Crizotinib] (partner 1 µM) is strictly less than 0.3?
-1

Would you kindly verify if relative viability of CCNC(=O)c1noc(-c2cc(C(C)C)c(O)cc2O)c1-c1ccc(CN2CCOCC2)cc1 [Luminespib] + CS(=O)(=O)N1CCN(Cc2cc3nc(-c4cccc5[nH]ncc45)nc(N4CCOCC4)c3s2)CC1 [Pictilisib] (partner 1 µM) is strictly less than 0.3?
1

Would you kindly verify if relative viability of CCNC(=O)c1noc(-c2cc(C(C)C)c(O)cc2O)c1-c1ccc(CN2CCOCC2)cc1 [Luminespib] + O=C(c1cc(Cc2n[nH]c(=O)c3ccccc23)ccc1F)N1CCN(C(=O)C2CC2)CC1 [Olaparib] (partner 8 µM) is strictly less than 0.3?
-1
